test: in vivo; settings: CD1 nude, mouse, 0.5 nmol/mouse, total radioactivity, Salivary glands uptake
Task for the reader: assign each of the following compounds its reported tissue uptake at 4 h.
Numbers only, in %ID/g.

Please review the entries below; each comes with its answer.
Cc1ccc(CCCC(=O)NCCCCCCCC(=O)NCCCC[C@H](NC(=O)CN2CCN(CC(=O)O)CCN(CC(=O)O)CCN(CC(=O)O)CC2)C(=O)N[C@@H](CC(=O)O)C(=O)N[C@@H](CC2CCCCC2)C(=O)N[C@@H](Cc2ccccc2)C(=O)N[C@H](CO)C(=O)N[C@H](CCCNC(=N)N)C(=O)N[C@@H](Cc2ccc(O)cc2)C(=O)N[C@@H](CC(C)C)C(=O)N[C@@H](Cc2c[nH]c3ccccc23)C(=O)N[C@@H](CO)C(N)=O)cc1 [[^177Lu]Lu-uPAR-12, metal not drawn]: 2.7
Cc1ccc(CCCC(=O)NCCOCCOCCOCCOCCOCCC(=O)NCCCC[C@H](NC(=O)CN2CCN(CC(=O)O)CCN(CC(=O)O)CCN(CC(=O)O)CC2)C(=O)N[C@@H](CC(=O)O)C(=O)N[C@@H](CC2CCCCC2)C(=O)N[C@@H](Cc2ccccc2)C(=O)N[C@H](CO)C(=O)N[C@H](CCCNC(=N)N)C(=O)N[C@@H](Cc2ccc(O)cc2)C(=O)N[C@@H](CC(C)C)C(=O)N[C@@H](Cc2c[nH]c3ccccc23)C(=O)N[C@@H](CO)C(N)=O)cc1 [[^177Lu]Lu-uPAR-18, metal not drawn]: 0.87
Cc1ccc(CCCC(=O)NCCOCCOCCOCCOCCC(=O)NCCCC[C@H](NC(=O)CN2CCN(CC(=O)O)CCN(CC(=O)O)CCN(CC(=O)O)CC2)C(=O)N[C@@H](CC(=O)O)C(=O)N[C@@H](CC2CCCCC2)C(=O)N[C@@H](Cc2ccccc2)C(=O)N[C@H](CO)C(=O)N[C@H](CCCNC(=N)N)C(=O)N[C@@H](Cc2ccc(O)cc2)C(=O)N[C@@H](CC(C)C)C(=O)N[C@@H](Cc2c[nH]c3ccccc23)C(=O)N[C@@H](CO)C(N)=O)cc1 [[^177Lu]Lu-uPAR-11, metal not drawn]: 1.3

Shifting focus to the compound that follows.
# lookup: tissue uptake at 4 h of Cc1ccc(CCCC(=O)NCCOCCOCCOCCOCCC(=O)NCCCC[C@H](NC(=O)CC[C@H](C(=O)O)N2CCN(CC(=O)O)CCN(CC(=O)O)CCN(CC(=O)O)CC2)C(=O)N[C@@H](CC(=O)O)C(=O)N[C@@H](CC2CCCCC2)C(=O)N[C@@H](Cc2ccccc2)C(=O)N[C@H](CO)C(=O)N[C@H](CCCNC(=N)N)C(=O)N[C@@H](Cc2ccc(O)cc2)C(=O)N[C@@H](CC(C)C)C(=O)N[C@@H](Cc2c[nH]c3ccccc23)C(=O)N[C@@H](CO)C(N)=O)cc1 [[^177Lu]Lu-uPAR-17, metal not drawn] 1.2
